experimental.target: X-box-binding protein 1 (Homo sapiens) (UniProt P17861)
Sequence (P17861 whole entry, looked up): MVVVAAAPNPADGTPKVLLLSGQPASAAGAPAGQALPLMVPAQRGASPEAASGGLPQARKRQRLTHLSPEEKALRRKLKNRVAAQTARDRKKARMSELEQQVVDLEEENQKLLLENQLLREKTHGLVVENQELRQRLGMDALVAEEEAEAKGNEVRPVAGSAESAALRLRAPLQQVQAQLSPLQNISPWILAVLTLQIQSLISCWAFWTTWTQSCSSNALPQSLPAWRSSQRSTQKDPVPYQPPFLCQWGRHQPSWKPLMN
measurement.notes: ATG_Xbp1_CIS: Attagene CIS-FACTORIAL HepG2 Assay for human X-box Binding Protein 1 (XBP1) (AID 2282972)
experimental.context: HepG2 XBP1 cis-element reporter, Attagene multiplex; actives raise or lower the signal
Calls of active or inactive are those of the source. The calls were made as follows: active = hit-call score of the fitted dose curve at least 0.9, where 1 is the maximum; inactive = score below 0.9.

# compound, experimental.target, outcome
measured = [
    ("CCCCC(CC)COC(=O)c1c(Br)c(Br)c(Br)c(Br)c1C(=O)OCC(CC)CCCC (centres undefined)", "X-box-binding protein 1 (Homo sapiens) (UniProt P17861)", "inactive"),
    ("CCN(CC)C1CCCCC1", "X-box-binding protein 1 (Homo sapiens) (UniProt P17861)", "inactive"),
    ("O=[N+]([O-])c1cc(Cl)ccc1Cl", "X-box-binding protein 1 (Homo sapiens) (UniProt P17861)", "inactive"),
    ("CCOP(=S)(Oc1ccc([N+](=O)[O-])cc1)c1ccccc1 (centres undefined)", "X-box-binding protein 1 (Homo sapiens) (UniProt P17861)", "inactive"),
    ("CC(Cc1ccc(OCC(=O)O)cc1)NCC(O)c1csc(C(F)(F)F)n1 (centres undefined)", "X-box-binding protein 1 (Homo sapiens) (UniProt P17861)", "inactive"),
    ("CCOP(=S)(OCC)SCSc1ccc(Cl)cc1", "X-box-binding protein 1 (Homo sapiens) (UniProt P17861)", "inactive"),
    ("Cc1ccc(O)cc1C", "X-box-binding protein 1 (Homo sapiens) (UniProt P17861)", "inactive"),
    ("O=[N+]([O-])c1ccc(Cl)c(Cl)c1", "X-box-binding protein 1 (Homo sapiens) (UniProt P17861)", "inactive"),
    ("CCCN(CCC)c1c([N+](=O)[O-])cc(C(C)C)cc1[N+](=O)[O-]", "X-box-binding protein 1 (Homo sapiens) (UniProt P17861)", "inactive"),
    ("CCOP(=S)(OCC)SCS(=O)(=O)CC", "X-box-binding protein 1 (Homo sapiens) (UniProt P17861)", "inactive"),
    ("c1ccc(OP(Oc2ccccc2)Oc2ccccc2)cc1", "X-box-binding protein 1 (Homo sapiens) (UniProt P17861)", "inactive"),
    ("COP(=O)(O)OC", "X-box-binding protein 1 (Homo sapiens) (UniProt P17861)", "inactive"),
    ("COP(N)(=S)OC", "X-box-binding protein 1 (Homo sapiens) (UniProt P17861)", "inactive"),
    ("CCOC(=O)c1ccccc1C(=O)OCC", "X-box-binding protein 1 (Homo sapiens) (UniProt P17861)", "inactive"),
]

---

measurement.notes: CCTE_Simmons_MITO_max_resp_rate: CCTE's HepG2 Seahorse XF Respirometric Screening Assay at Maximal Respiratory State [uncoupled], Simmons Lab (AID 2284002)
experimental.context: actives raise or lower the signal
Calls of active or inactive are those of the source. How the source made its calls: active means hit-call score of the fitted dose curve at least 0.9, where 1 is the maximum; inactive means score below 0.9.
Outcomes: label 1 = active, label 0 = inactive

# compound.structure.string, classification
records = [
    ("CCOP(=S)(OCC)SCSCC", "label 1"),
    ("ClC(Cl)(Cl)c1ccccc1", "label 0"),
    ("CC(C)(C)c1ccc(O)cc1", "label 0"),
    ("CCCCCCCc1ccc(O)cc1", "label 1"),
    ("Cc1ccc(N)cc1N", "label 0"),
]

The measured values listed here are drawn from PubChem BioAssay (EPA / NIEHS).
